# experimental details: Half-lives and pharmacokinetic parameters of polypeptides vs HM-1
# recorded conditions: in vivo
Peptide text beside a SMILES is read from it. * marks the point of attachment. X4 = O=C1C=CC(=O)N1CCOCCOCCOCCOCCCCCCCC(=O)*; X81 = O=C1C=CC(=O)N1c1ccccc1CCCC(=O)*
value kind: MRT inf

compound="C[C@H](NC(=O)CNC(=O)[C@H](CCCNC(=N)N)NC(=O)CCCc1ccccc1N1C(=O)C=CC1=O)C(=O)N[C@@H](CC(=O)O)C(=O)N[C@@H](CCCNC(=N)N)C(=O)N[C@@H](C)C(=O)NCC(=O)NCC(=O)NCC(=O)NCC(=O)N[C@@H](CCCNC(=N)N)C(=O)NCC(=O)N[C@@H](CC(=O)O)C(=O)O [X15] (X81-RGADRAGGGGRGD-OH)" value_reported="61.5 h"
compound="C[C@H](NC(=O)CNC(=O)[C@H](CCCNC(=N)N)NC(=O)CCCCCCCOCCOCCOCCOCCN1C(=O)C=CC1=O)C(=O)N[C@@H](CC(=O)O)C(=O)N[C@@H](CCCNC(=N)N)C(=O)N[C@@H](C)C(=O)NCC(=O)NCC(=O)NCC(=O)NCC(=O)N[C@@H](CCCNC(=N)N)C(=O)NCC(=O)N[C@@H](CC(=O)O)C(=O)O [X76] (X4-RGADRAGGGGRGD-OH)" value_reported="60.6 h"

###

# experimental details: Half-lives and pharmacokinetic parameters of polypeptides vs HM-1
# recorded conditions: in vivo; read-out: T1/2β (half-life) (converted)
Peptide text beside a SMILES is read from it. * marks the point of attachment. Hexanoyl(6-maleimido) = O=C1C=CC(=O)N1CCCCCC(=O)*; Butanoyl(4-maleimido) = O=C1C=CC(=O)N1CCCC(=O)*; Propanoyl(3-maleimido) = O=C1C=CC(=O)N1CCC(=O)*; Maleimidoacetyl = O=C1C=CC(=O)N1CC(=O)*
Known half-life of a selection of compounds
value kind: half-life (h)

compound="C[C@H](NC(=O)CNC(=O)[C@H](CCCNC(=N)N)NC(=O)CCN1C(=O)C=CC1=O)C(=O)N[C@@H](CC(=O)O)C(=O)N[C@@H](CCCNC(=N)N)C(=O)N[C@@H](C)C(=O)NCC(=O)NCC(=O)NCC(=O)NCC(=O)N[C@@H](CCCNC(=N)N)C(=O)NCC(=O)N[C@@H](CC(=O)O)C(=O)O [X2] ({Propanoyl(3-maleimido)}-RGADRAGGGGRGD-OH)" value_reported=34.5
compound="CC(C)[C@H](NC(=O)[C@H](C)NC(=O)CNC(=O)[C@H](CCCNC(=N)N)NC(=O)CCN1C(=O)C=CC1=O)C(=O)N[C@@H](CC(=O)O)C(=O)N[C@@H](CCCNC(=N)N)C(=O)N[C@@H](C)C(=O)NCC(=O)NCC(=O)NCC(=O)NCC(=O)N[C@@H](CCCNC(=N)N)C(=O)NCC(=O)N[C@@H](CC(=O)O)C(=O)O [P9] ({Propanoyl(3-maleimido)}-RGAVDRAGGGGRGD-OH; C-terminus assumed)" value_reported=34.6
compound="C[C@H](NC(=O)CNC(=O)[C@H](CCCNC(=N)N)NC(=O)CN1C(=O)C=CC1=O)C(=O)N[C@@H](CC(=O)O)C(=O)N[C@@H](CCCNC(=N)N)C(=O)N[C@@H](C)C(=O)NCC(=O)NCC(=O)NCC(=O)NCC(=O)N[C@@H](CCCNC(=N)N)C(=O)NCC(=O)N[C@@H](CC(=O)O)C(=O)O [X1] (Maleimidoacetyl-RGADRAGGGGRGD-OH)" value_reported=36
compound="C[C@H](NC(=O)CNC(=O)[C@H](CCCNC(=N)N)NC(=O)CCCN1C(=O)C=CC1=O)C(=O)N[C@@H](CC(=O)O)C(=O)N[C@@H](CCCNC(=N)N)C(=O)N[C@@H](C)C(=O)NCC(=O)NCC(=O)NCC(=O)NCC(=O)N[C@@H](CCCNC(=N)N)C(=O)NCC(=O)N[C@@H](CC(=O)O)C(=O)O [X3] ({Butanoyl(4-maleimido)}-RGADRAGGGGRGD-OH)" value_reported=41.9
compound="C[C@H](NC(=O)[C@H](CCCNC(=N)N)NC(=O)[C@H](CC(=O)O)NC(=O)CNC(=O)[C@H](CCCNC(=N)N)NC(=O)CCCCCN1C(=O)C=CC1=O)C(=O)NCC(=O)NCC(=O)NCC(=O)NCC(=O)N[C@@H](CCCNC(=N)N)C(=O)NCC(=O)N[C@@H](CC(=O)O)C(=O)O [P8] ({Hexanoyl(6-maleimido)}-RGDRAGGGGRGD-OH; C-terminus assumed)" value_reported=38.7
compound="C[C@H](NC(=O)CNC(=O)[C@H](CCCNC(=N)N)NC(=O)CCCCCN1C(=O)C=CC1=O)C(=O)N[C@@H](CC(=O)O)C(=O)N[C@@H](CCCNC(=N)N)C(=O)N[C@@H](C)C(=O)NCC(=O)N[C@@H](CO)C(=O)N[C@@H](CO)C(=O)N[C@@H](CO)C(=O)N[C@@H](CO)C(=O)N[C@@H](CCCNC(=N)N)C(=O)NCC(=O)N[C@@H](CC(=O)O)C(=O)O [P14] ({Hexanoyl(6-maleimido)}-RGADRAGSSSSRGD-OH; C-terminus assumed)" value_reported=39.9
